- System: SN12C renal
- ASSAY_REMARKS: NCI-60 one-dose screen, 48 h (100 = growth as untreated, 0 = no growth, -100 = all killed)
- MEASUREMENT_CONTEXT: 10 µM unless noted
About 83,000 compounds went through this panel and 20% of them were active in at least one assay; those are over-represented in the sample as a whole.
The entries below come with measured growth values attached.
The response must be a number in % with no trailing unit.

Entry C#C[C@@]1(O)[C@@H](CO)O[C@@H](n2cc(C(F)(F)F)c3c(N)ncnc32)[C@@H]1O needs its growth filled in; supply it.
9.05

Consider the compound CN(C)c1ccc(/C=N/N=C(N)N)cc1 and give its recorded growth.
82.3

----------
- System: NCI-H460 lung
- ASSAY_REMARKS: NCI-60 one-dose screen, 48 h (100 = growth as untreated, 0 = no growth, -100 = all killed)
- MEASUREMENT_CONTEXT: 10 µM unless noted
- Description: Growth inhibition of the NCI-H460 human Non-Small Cell Lung tumor cell line is measured as a screen for anti-cancer activity. Cells are grown in 96 well plates and exposed to the test compound for 48 hours. Compounds are tested at a single concentration, which is 10^-5 M for most compounds. The reported endpoint is percent growth (GI% or GIPRCNT), where numbers from 0 - 100% represent growth inhibition, and numbers from -100% - 0 represent cell death. […]
The panel holds about 83,000 compounds, 20% with a hit somewhere; the sample as a whole holds those more often.
// values below are reported growth
Enter your answer as a number in %; do not include the unit.

Completed entries (count: 3):
>  <COMPOUND>
Cc1ccccc1C[P+](c1ccccc1)(c1ccccc1)c1ccccc1

>  <TARGET_ENTITY>
NCI-H460 lung

>  <UOM>
%

>  <MEASURED_VALUE>
21

$$$$
>  <COMPOUND>
COc1ccc(NC(=O)Nc2ccc(-c3ccc(OC)c(OC)c3)nc2C)cc1

>  <TARGET_ENTITY>
NCI-H460 lung

>  <UOM>
%

>  <MEASURED_VALUE>
17.6

$$$$
>  <COMPOUND>
Cc1cn(C2CC(F)C(CO)O2)c(=O)[nH]c1=O (stereo not given)

>  <TARGET_ENTITY>
NCI-H460 lung

>  <UOM>
%

>  <MEASURED_VALUE>
51.8

$$$$

Write down growth measured for item CCCCCCCCCCCCCCCC(=O)NS(=O)(=O)OC[C@H]1O[C@@H](n2cnc3c(N)ncnc32)[C@H](O)[C@@H]1O
-10.1

Please report the measured growth for c1coc(CSc2ncnc3nc[nH]c23)c1
111

----------
- Test system: KM12 colon
- ASSAY_REMARKS: NCI-60 one-dose screen, 48 h (100 = growth as untreated, 0 = no growth, -100 = all killed)
- MEASUREMENT_CONTEXT: 10 µM unless noted
This is part of a sample that, as a whole, favours compounds with a hit. Of some 83,000 tested, about 20% had one in any assay. The source made the active and inactive calls. Rule for the calls: active = growth percent below 10; inactive = the rest.
The entries below come with measured growth values attached.

Previously resolved entries follow.
>  <COMPOUND>
COc1ccc(-n2c(-c3ccc(NC(=O)CCCl)cc3)nnc2-c2cc(OC)c(OC)c(OC)c2)cc1

>  <growth>
15.4% (inactive)

$$$$
>  <COMPOUND>
O=C1OC(=O)C2C3CC(c4ccccc43)C12 (stereo unspecified)

>  <growth>
105% (inactive)

$$$$
>  <COMPOUND>
COc1cc2nc(C(=O)N3CCCCC3)cc(Nc3ccccc3)c2cc1OC

>  <growth>
99.3% (inactive)

$$$$
>  <COMPOUND>
COc1ccc(SC2c3ccc(O)cc3Oc3nc(N)c(C#N)c(N)c32)cc1 (stereo unspecified)

>  <growth>
65.5% (inactive)

$$$$
>  <COMPOUND>
S=c1ssnc1-c1ccccn1

>  <growth>
32.8% (inactive)

$$$$
>  <COMPOUND>
O=S1(=O)N(CCNc2nccc(-c3c(-c4cccc(O)c4)nc4sccn34)n2)CCN1Cc1ccccc1

>  <growth>
47.6% (inactive)

$$$$
>  <COMPOUND>
C=CC(=O)Nc1cccc(Nc2nc(Nc3ccc(OCCOC(F)F)cc3)ncc2F)c1

>  <growth>
37.4% (inactive)

$$$$
>  <COMPOUND>
O=C(Nc1ccc(-n2ccc3c(NC(=O)c4ccccc4)ncnc32)cc1)c1cccc(C(F)(F)F)c1

>  <growth>
30% (inactive)

$$$$

# context switch: different compound, same growth
Specify measured growth for CCc1c(C)c2cc3c(c(C)c2oc1=O)OCC(=O)N3 .
84.3% (inactive)

----------
- System: OVCAR-8 ovarian
- ASSAY_REMARKS: NCI-60 one-dose screen, 48 h (100 = growth as untreated, 0 = no growth, -100 = all killed)
- MEASUREMENT_CONTEXT: 10 µM unless noted
About 83,000 compounds went through this panel and 20% of them were active in at least one assay; those are over-represented in the sample as a whole. Calls of active or inactive are those of the source. Rule for the calls: active = growth percent below 10; inactive = the rest.
MEASURED_QUANTITY: growth

>  <MOLECULE>
COc1ccc(C(=O)Cn2cnc3c(Nc4cc(C(=O)Nc5ccc(N6CCN(CCO)CC6)cc5)ccc4C)ncnc32)cc1

>  <TARGET_ENTITY>
OVCAR-8 ovarian

>  <MEASURED_QUANTITY>
growth

>  <MEASURED_VALUE>
104% (inactive)

$$$$

Consider the molecule O=C(NOC1OC(CO)C(O)C(O)C1O)Nc1ccccc1 (stereo not given) . State its measured growth.
103% (inactive)

Note down growth recorded for CCC1(C(N)=O)CC2C=CC1CC2 (stereo not given)
61.2% (inactive)

Report measured growth; entry is COc1ccc(CNc2nc3ccccc3c3c(=O)c4ccccc4sc23)cc1OC
64.8% (inactive)

Note growth for the molecule shown: Nc1nccc2c1ccn2-c1cccc(NC(=O)c2ccc(N3CCOCC3)c(C(F)(F)F)c2)c1
0.868% (active)

----------
- Test system: COLO 205 colon
- ASSAY_REMARKS: NCI-60 one-dose screen, 48 h (100 = growth as untreated, 0 = no growth, -100 = all killed)
- MEASUREMENT_CONTEXT: 10 µM unless noted
The panel holds about 83,000 compounds, 20% with a hit somewhere; the sample as a whole holds those more often.
Values of growth greater than or equal to 80% map to Fulfilled; values below map to Not fulfilled.

Please review the entries below; each comes with its answer.
>  <MOLECULE>
CN(C)CCS(=O)(=O)Nc1cc(-c2ccc3ncnc(Nc4ccc(F)c(Cl)c4)c3c2)cnc1Cl

>  <DISCRETE_LABEL>
Not fulfilled

$$$$
>  <MOLECULE>
CC1=C2C(=C[C@@](C)(CO)[C@@H]2OC(=O)N(C)CCN(C)C(=O)OC(C)(C)C)C(=O)[C@](C)(O)C12CC2

>  <DISCRETE_LABEL>
Not fulfilled

$$$$
>  <MOLECULE>
COc1cc(/C=C/C(=O)N2CCC=CC2=O)cc(OC)c1OC

>  <DISCRETE_LABEL>
Not fulfilled

$$$$
>  <MOLECULE>
CCc1c(C)c2cc3nc(NCc4ccccc4)oc3c(C)c2oc1=O

>  <DISCRETE_LABEL>
Fulfilled

$$$$
>  <MOLECULE>
COc1cc2c(/C=C3/C(=O)Nc4ccc(O)cc43)c(Cl)n(Cc3cc(OC)c(OC)c(OC)c3)c2cc1C

>  <DISCRETE_LABEL>
Not fulfilled

$$$$
>  <MOLECULE>
N#Cc1c(N)nc(Cl)c(C#N)c1C(=O)c1ccccc1

>  <DISCRETE_LABEL>
Not fulfilled

$$$$
>  <MOLECULE>
FC(F)(F)c1cn(CCN2CCOCC2)c2ncnc(Cl)c12

>  <DISCRETE_LABEL>
Not fulfilled

$$$$
>  <MOLECULE>
O=C(Nc1ccc(-n2cc(-c3ccncc3)c(-c3ccc(O)c(Cl)c3)n2)cc1)Nc1cccc(Cl)c1Cl

>  <DISCRETE_LABEL>
Not fulfilled

$$$$
>  <MOLECULE>
Cc1cc2c(cc1C)N(C(=O)CCl)CCN2C(=O)CCl

>  <DISCRETE_LABEL>
Not fulfilled

$$$$
>  <MOLECULE>
c1ccc(CNCCN(CCNCc2ccccn2)Cc2ccc3ccccc3c2)nc1

>  <DISCRETE_LABEL>
Not fulfilled

$$$$

Determine whether this molecule has growth no lower than 80%: Cc1cc(NC(=O)c2cccc(C(F)(F)F)c2)ccc1-n1ccc2c(NC(=O)c3ccccc3)nccc21
Fulfilled

Kindly determine if growth recorded for Cc1cc(Nc2ccc(Cl)c(Cl)c2)nc(N)n1 is above or exactly 80%.
Fulfilled

Hello, I need to know if COc1ccc(-c2nnc(SCC(=O)Nc3ccc(C(=O)/C=C/c4ccccc4)cc3)o2)cc1OC has measured growth not below 80%. Thanks!
Fulfilled

Reference source: PubChem BioAssay (NCI)
